Record type: pIC50 measurement. Applies to: UniProt P11362
Conceptually, pIC50 converts a concentration in mol/L into minus its log10.

// solved cases for pIC50 follow
Problem: API: value(readout= pIC50, system= UniProt P11362, query= CONC(=O)c1cc(Nc2ncnn3cc(-c4nc(C)no4)c(C(C)C)c23)c(F)cc1F )
Result: 6.96

Problem: API: value(readout= pIC50, system= UniProt P11362, query= CONC(=O)c1cc(Nc2ncnn3cc(-c4noc(C)n4)c(C(C)C)c23)c(F)cc1F )
Result: 6.85

Problem: API: value(readout= pIC50, system= UniProt P11362, query= CONC(=O)c1cc(Nc2ncnn3cc(-c4nnc(CC5CC5)o4)c(C(C)C)c23)c(F)cc1F )
Result: 7.57

Problem: API: value(readout= pIC50, system= UniProt P11362, query= CONC(=O)c1cc(Nc2ncnn3cc(-c4nnc(CN(C)C)o4)c(C(C)C)c23)c(F)cc1F )
Result: 6.83

Here is the next item to consider.
Problem: API: value(readout= pIC50, system= UniProt P11362, query= CONC(=O)c1cc(Nc2ncnn3cc(NC(=O)OCCCS(C)(=O)=O)c(C(C)C)c23)c(F)cc1F )
Result: 7.24

* * *

Entries and their pIC50 values follow.
# tgt: Platelet-derived growth factor receptor beta (Homo sapiens, UniProt P09619)
# Sequence (P09619 whole entry): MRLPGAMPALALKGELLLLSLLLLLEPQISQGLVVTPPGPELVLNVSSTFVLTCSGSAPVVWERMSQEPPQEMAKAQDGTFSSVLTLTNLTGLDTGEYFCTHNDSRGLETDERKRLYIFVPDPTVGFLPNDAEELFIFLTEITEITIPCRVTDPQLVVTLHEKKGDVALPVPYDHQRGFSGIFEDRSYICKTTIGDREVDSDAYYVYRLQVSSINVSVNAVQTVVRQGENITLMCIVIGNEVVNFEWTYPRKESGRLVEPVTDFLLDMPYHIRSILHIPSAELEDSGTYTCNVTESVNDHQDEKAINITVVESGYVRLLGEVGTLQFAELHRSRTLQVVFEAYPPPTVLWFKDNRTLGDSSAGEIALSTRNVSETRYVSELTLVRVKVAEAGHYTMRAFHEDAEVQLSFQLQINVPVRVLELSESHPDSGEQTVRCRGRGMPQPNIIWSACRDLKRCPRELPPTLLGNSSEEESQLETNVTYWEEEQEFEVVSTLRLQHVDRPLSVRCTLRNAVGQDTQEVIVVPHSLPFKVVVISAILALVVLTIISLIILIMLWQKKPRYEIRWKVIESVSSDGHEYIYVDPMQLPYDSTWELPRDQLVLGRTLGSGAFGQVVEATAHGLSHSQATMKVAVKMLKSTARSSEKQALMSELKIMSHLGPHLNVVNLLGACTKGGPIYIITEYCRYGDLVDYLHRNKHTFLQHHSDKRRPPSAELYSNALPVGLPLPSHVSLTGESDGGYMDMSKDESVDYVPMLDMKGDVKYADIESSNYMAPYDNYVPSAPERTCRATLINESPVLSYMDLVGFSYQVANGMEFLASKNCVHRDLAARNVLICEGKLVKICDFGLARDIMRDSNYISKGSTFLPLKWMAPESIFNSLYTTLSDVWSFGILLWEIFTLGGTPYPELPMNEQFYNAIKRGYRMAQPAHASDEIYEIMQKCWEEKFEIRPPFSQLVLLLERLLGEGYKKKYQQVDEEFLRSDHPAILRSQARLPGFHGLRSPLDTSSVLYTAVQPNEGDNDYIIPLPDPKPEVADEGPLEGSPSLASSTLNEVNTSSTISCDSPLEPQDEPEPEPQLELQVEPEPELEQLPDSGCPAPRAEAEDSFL
pIC50: −log10 of the molar value.

Problem: API: value(readout= pIC50, system= Platelet-derived growth factor receptor beta (Homo sapiens, UniProt P09619), query= CONC(=O)c1cc(Nc2ncnn3cc(-c4nnc(C(F)F)o4)c(C(C)C)c23)c(F)cc1F )
Result: < 5.70

Here is the next item to consider.
Problem: API: value(readout= pIC50, system= Platelet-derived growth factor receptor beta (Homo sapiens, UniProt P09619), query= CONC(=O)c1cc(Nc2ncnn3cc(NC(=O)OCCCS(C)(=O)=O)c(C(C)C)c23)c(F)cc1F )
Result: < 5.70

* * *

# method.notes: Half-life determined after administration of 10 mg/kg dose po in mouse
# Assay type: ADME, organism-based
# Set-up: dose 10 mg/kg, route oral
# applied.conditions: in vivo
experimental.readout: half-life
Write your answer as a measured quantity: the number, then the unit.

Problem: Form field: reported half-life of CONC(=O)c1cc(Nc2ncnn3cc(-c4nnc(C(F)(F)S(C)(=O)=O)o4)c(C(C)C)c23)c(F)cc1F
Result: 3.6 h

* * *

# tgt: Receptor tyrosine-protein kinase erbB-2 (Homo sapiens, UniProt P04626)
# Sequence (P04626 whole entry): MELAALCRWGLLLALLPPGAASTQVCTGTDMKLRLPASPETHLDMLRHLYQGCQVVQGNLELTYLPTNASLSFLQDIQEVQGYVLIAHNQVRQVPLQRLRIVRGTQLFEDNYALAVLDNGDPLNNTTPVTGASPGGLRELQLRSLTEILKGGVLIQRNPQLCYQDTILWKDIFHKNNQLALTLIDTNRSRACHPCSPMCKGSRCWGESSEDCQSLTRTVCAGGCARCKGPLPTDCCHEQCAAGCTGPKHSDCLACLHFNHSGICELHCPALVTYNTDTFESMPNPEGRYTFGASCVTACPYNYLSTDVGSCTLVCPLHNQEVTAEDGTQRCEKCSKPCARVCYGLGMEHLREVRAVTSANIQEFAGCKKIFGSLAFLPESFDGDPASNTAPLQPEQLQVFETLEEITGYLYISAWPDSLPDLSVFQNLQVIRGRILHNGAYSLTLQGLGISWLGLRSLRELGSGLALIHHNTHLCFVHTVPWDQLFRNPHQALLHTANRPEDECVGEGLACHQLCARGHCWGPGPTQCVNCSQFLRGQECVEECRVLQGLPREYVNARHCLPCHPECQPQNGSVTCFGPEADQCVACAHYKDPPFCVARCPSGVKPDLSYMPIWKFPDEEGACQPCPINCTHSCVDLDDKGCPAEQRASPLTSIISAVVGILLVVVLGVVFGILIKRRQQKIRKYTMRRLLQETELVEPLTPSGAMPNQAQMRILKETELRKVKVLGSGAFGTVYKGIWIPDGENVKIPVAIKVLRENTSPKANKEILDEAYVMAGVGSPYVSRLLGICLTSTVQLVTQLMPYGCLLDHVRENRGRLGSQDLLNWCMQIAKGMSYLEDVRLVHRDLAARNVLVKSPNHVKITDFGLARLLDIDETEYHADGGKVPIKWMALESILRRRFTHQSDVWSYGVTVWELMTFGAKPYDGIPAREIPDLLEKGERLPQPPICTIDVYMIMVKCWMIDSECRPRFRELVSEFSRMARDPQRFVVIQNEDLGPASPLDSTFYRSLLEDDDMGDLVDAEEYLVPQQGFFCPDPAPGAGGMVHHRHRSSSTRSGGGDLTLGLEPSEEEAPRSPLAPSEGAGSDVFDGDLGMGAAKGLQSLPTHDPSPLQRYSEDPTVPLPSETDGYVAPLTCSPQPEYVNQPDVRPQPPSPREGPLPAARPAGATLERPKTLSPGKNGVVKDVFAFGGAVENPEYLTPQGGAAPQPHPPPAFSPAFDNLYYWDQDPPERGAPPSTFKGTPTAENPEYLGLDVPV
experimental.readout: pIC50
Conceptually, pIC50 converts a concentration in mol/L into minus its log10.

Problem: API: value(readout= pIC50, system= Receptor tyrosine-protein kinase erbB-2 (Homo sapiens, UniProt P04626), query= CONC(=O)c1cc(Nc2ncnn3cc(NC(=O)OCCCS(C)(=O)=O)c(C(C)C)c23)c(F)cc1F )
Result: 5.28

Here is the next item to consider.
Problem: API: value(readout= pIC50, system= Receptor tyrosine-protein kinase erbB-2 (Homo sapiens, UniProt P04626), query= CONC(=O)c1cc(Nc2ncnn3cc(-c4nnc(C)o4)c(C(C)C)c23)c(F)cc1F )
Result: 5.10

* * *

# method.notes: Plasma level after 1 hour of oral administration of 10 mg/kg compound in mouse
experimental.readout: concentration at 1 h (µM)
Answer with a number only, understood to be in µM.

Problem: Form field: reported concentration at 1 h of CONC(=O)c1cc(Nc2ncnn3cc(-c4nnc(C(F)(F)S(C)(=O)=O)o4)c(C(C)C)c23)c(F)cc1F
Result: 26.6

* * *

Entries and their concentration at 1 h values follow.
# method.notes: Plasma level after 1 hour of oral administration of 50 mg/kg compound in mouse
# Assay type: ADME, organism-based
# Parameters: dose 50 mg/kg, route oral
# applied.conditions: read-out: Plasma level
Answer with a number only, understood to be in µM.

// solved cases for concentration at 1 h follow
Problem: Form field: reported concentration at 1 h of CONC(=O)c1cc(Nc2ncnn3cc(-c4nnc(CS(C)(=O)=O)o4)c(C(C)C)c23)c(F)cc1F
Result: 288

Problem: Form field: reported concentration at 1 h of CONC(=O)c1cc(Nc2ncnn3cc(NC(=O)OCC4CCCO4)c(C(C)C)c23)c(F)cc1F (stereo unspecified)
Result: 29.5

Others:
Problem: Form field: reported concentration at 1 h of CONC(=O)c1cc(Nc2ncnn3cc(NC(=O)OC4CCN(C)CC4)c(C(C)C)c23)c(F)cc1F
Result: 5.1

Problem: Form field: reported concentration at 1 h of CONC(=O)c1cc(Nc2ncnn3cc(-c4nnc(C(F)F)o4)c(C(C)C)c23)c(F)cc1F
Result: 187

Problem: Form field: reported concentration at 1 h of CONC(=O)c1cc(Nc2ncnn3cc(NC(=O)OCCCS(C)(=O)=O)c(C(C)C)c23)c(F)cc1F
Result: 7.9

Problem: Form field: reported concentration at 1 h of CONC(=O)c1cc(Nc2ncnn3cc(-c4nnc(C)o4)c(C(C)C)c23)c(F)cc1F
Result: 132

* * *

# tgt: Vascular endothelial growth factor receptor 2 (Homo sapiens, UniProt P35968)
# Sequence (P35968 whole entry): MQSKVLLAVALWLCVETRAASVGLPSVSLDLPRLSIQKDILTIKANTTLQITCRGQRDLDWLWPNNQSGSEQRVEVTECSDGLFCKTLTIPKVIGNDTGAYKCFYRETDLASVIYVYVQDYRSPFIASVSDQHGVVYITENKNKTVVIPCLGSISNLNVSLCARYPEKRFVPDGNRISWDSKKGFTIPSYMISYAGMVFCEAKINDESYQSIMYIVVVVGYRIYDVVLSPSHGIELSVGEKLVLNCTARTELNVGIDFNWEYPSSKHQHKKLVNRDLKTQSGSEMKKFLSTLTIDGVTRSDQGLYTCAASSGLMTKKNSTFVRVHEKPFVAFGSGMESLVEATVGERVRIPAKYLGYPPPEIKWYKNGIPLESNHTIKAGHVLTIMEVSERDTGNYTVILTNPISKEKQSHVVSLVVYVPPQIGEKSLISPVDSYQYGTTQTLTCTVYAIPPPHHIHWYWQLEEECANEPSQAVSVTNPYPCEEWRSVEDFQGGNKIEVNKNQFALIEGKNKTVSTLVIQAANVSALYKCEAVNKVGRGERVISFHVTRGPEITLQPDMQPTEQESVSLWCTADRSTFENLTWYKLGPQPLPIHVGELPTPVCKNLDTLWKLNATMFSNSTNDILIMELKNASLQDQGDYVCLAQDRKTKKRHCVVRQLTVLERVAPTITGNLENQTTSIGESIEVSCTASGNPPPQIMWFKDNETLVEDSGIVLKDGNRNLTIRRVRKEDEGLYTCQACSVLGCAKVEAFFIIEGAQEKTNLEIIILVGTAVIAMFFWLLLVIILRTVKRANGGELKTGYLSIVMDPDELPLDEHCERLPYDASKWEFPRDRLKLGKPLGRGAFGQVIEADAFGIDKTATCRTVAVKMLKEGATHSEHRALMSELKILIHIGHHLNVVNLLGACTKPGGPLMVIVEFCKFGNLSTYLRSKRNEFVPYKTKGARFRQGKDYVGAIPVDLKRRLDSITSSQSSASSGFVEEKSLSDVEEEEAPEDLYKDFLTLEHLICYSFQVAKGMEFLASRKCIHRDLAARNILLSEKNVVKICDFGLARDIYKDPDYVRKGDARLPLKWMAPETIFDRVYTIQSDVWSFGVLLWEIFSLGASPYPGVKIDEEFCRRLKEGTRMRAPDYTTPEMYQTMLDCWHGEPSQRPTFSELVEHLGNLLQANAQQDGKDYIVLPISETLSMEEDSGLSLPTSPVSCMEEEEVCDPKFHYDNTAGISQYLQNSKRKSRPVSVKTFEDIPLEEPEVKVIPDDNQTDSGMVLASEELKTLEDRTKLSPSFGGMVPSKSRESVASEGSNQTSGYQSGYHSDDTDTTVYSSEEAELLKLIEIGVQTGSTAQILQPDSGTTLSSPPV
# method.notes: Inhibition of human vascular endothelial growth factor receptor 2 kinase activity
IC50 strictly less than 0.03 µM = TRUE. Otherwise FALSE.

Please review the following examples before continuing.
Problem: Please state whether IC50 is below 0.03 µM for CONC(=O)c1cc(Nc2ncnn3cc(-c4nnc(CN(C)C)o4)c(C(C)C)c23)c(F)cc1F
Result: FALSE

Problem: Please state whether IC50 is below 0.03 µM for CCOC(=O)c1cn2ncnc(Nc3cccc(C(=O)NOC)c3)c2c1C(C)C
Result: FALSE

Problem: Please state whether IC50 is below 0.03 µM for CONC(=O)c1cc(Nc2ncnn3cc(-c4nc(C)no4)c(C(C)C)c23)c(F)cc1F
Result: FALSE

Problem: Please state whether IC50 is below 0.03 µM for CCOC(=O)c1cn2ncnc(Nc3cc(C(=O)NOCC4CC4)c(F)cc3F)c2c1C(C)C
Result: FALSE

Others:
Problem: Please state whether IC50 is below 0.03 µM for CCOC(=O)c1cn2ncnc(Nc3ccc(F)c(C(=O)NOC)c3)c2c1C(C)C
Result: FALSE

* * *

# tgt: Cytochrome P450 3A4 (Homo sapiens)
# Sequence (P08684 whole entry): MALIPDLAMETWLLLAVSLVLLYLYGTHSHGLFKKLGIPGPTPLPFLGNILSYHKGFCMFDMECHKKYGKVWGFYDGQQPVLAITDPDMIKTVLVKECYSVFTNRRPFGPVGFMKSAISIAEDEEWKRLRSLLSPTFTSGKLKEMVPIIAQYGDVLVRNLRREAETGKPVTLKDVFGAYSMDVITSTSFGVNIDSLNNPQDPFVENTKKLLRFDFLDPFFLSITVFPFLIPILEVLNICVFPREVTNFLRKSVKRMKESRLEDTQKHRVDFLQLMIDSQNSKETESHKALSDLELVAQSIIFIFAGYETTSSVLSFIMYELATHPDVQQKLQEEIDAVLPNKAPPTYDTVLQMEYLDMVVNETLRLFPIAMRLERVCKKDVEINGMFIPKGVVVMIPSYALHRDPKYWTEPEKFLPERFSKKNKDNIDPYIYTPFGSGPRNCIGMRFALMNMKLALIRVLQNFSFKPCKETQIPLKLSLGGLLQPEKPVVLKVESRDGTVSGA
experimental.readout: IC50 (µM)
Answer with a number only, understood to be in µM.

Problem: Form field: reported IC50 of CONC(=O)c1cc(Nc2ncnn3cc(-c4ncc(C)o4)c(C(C)C)c23)c(F)cc1F
Result: 5.1

* * *

# tgt: Fibroblast growth factor receptor (Homo sapiens, UniProt P22607+P11362+P22455+P21802)
# method.notes: Inhibition of FGF-stimulated human umbilical vein endothelial cell proliferation
# Format: functional, cell-based
Entries and their IC50 values follow.
Answer with a number only, understood to be in nM.

Problem: Form field: reported IC50 of CONC(=O)c1cc(Nc2ncnn3cc(-c4nnco4)c(C(C)C)c23)c(F)cc1F
Result: 54

Problem: Form field: reported IC50 of CONC(=O)c1cc(Nc2ncnn3cc(-c4nnc(N(C)C)o4)c(C(C)C)c23)c(F)cc1F
Result: 7.3

Problem: Form field: reported IC50 of CCc1nnc(-c2cn3ncnc(Nc4cc(C(=O)NOC)c(F)cc4F)c3c2C(C)C)o1
Result: 4.7

Problem: Form field: reported IC50 of CONC(=O)c1cc(Nc2ncnn3cc(-c4nnc(C5CC5)o4)c(C(C)C)c23)c(F)cc1F
Result: 5.3

Problem: Form field: reported IC50 of CONC(=O)c1cc(Nc2ncnn3cc(-c4nc(C)no4)c(C(C)C)c23)c(F)cc1F
Result: 7.6

Problem: Form field: reported IC50 of CONC(=O)c1cc(Nc2ncnn3cc(-c4n[nH]c(C)n4)c(C(C)C)c23)c(F)cc1F
Result: 46

Problem: Form field: reported IC50 of CONC(=O)c1cc(Nc2ncnn3cc(-c4nnc(C(F)(F)F)o4)c(C(C)C)c23)c(F)cc1F
Result: 33

Here is the next item to consider.
Problem: Form field: reported IC50 of CONC(=O)c1cc(Nc2ncnn3cc(-c4ncc(C)o4)c(C(C)C)c23)c(F)cc1F
Result: 4

* * *

# tgt: Fibroblast growth factor receptor 1 (Homo sapiens, UniProt P11362)
# Sequence (P11362 whole entry): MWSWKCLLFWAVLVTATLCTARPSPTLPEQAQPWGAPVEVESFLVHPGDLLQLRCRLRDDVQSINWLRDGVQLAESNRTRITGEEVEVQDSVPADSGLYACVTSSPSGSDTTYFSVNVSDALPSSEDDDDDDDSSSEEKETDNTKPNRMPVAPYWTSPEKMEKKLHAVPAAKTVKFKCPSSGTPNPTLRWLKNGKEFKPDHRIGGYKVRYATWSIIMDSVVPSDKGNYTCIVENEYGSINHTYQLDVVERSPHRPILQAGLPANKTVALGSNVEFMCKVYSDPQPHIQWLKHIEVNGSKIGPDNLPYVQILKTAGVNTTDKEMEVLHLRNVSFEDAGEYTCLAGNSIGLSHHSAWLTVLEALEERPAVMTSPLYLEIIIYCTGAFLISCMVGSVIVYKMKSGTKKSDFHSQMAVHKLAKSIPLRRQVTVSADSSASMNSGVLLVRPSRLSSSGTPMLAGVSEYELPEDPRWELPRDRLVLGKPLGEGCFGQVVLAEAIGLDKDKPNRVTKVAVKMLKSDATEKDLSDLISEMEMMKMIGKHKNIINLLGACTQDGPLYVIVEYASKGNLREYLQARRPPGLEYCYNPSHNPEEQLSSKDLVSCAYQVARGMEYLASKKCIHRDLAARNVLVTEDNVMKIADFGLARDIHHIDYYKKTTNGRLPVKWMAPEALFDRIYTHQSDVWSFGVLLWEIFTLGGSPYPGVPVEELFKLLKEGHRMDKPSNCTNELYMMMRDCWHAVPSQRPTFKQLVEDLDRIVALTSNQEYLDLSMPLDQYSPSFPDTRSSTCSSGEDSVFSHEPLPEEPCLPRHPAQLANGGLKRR
# method.notes: Inhibition of human fibroblast growth factor receptor 1
experimental.readout: pIC50
Conceptually, pIC50 converts a concentration in mol/L into minus its log10.

// solved cases for pIC50 follow
Problem: Form field: reported pIC50 of CONC(=O)c1cc(Nc2ncnn3cc(-c4nnc(C5CC5)o4)c(C(C)C)c23)c(F)cc1F
Result: 7.85

Problem: Form field: reported pIC50 of CONC(=O)c1cc(Nc2ncnn3cc(-c4ncc(C)o4)c(C(C)C)c23)c(F)cc1F
Result: 7.70

Here is the next item to consider.
Problem: Form field: reported pIC50 of CONC(=O)c1cc(Nc2ncnn3cc(-c4nnc(C(C)C)o4)c(C(C)C)c23)c(F)cc1F
Result: 7.41
